assay: inhibitors of measles virus growth in cells, primary screen, measles RdRp inhibitor project, cell-based, single point, HTS (AID 745); conditions: infected Vero cells, GFP fluorescence, 64 h; stronger effect = lower value
In all, about 33,000 compounds went through this assay and about 40 (0.1%) were called active. The sample as a whole holds a higher share of actives than the screen did.
Quantity name: z-score
Answers are plain numbers.

Sample records with z-score:
• O=[N+]([O-])c1ccc(C=Nc2ccc(-c3nc4ccccc4o3)cc2)s1 = -1.32
• COc1ccc(OC)c(NC(=O)c2c(NCc3ccc(C)o3)sc3c2CCC3)c1 = -1.95
• Cc1cccc(NC(=O)c2ccc(F)c(S(=O)(=O)N3CC(C)CC(C)C3)c2)c1 (stereo not given) = -0.97

For each of the items listed, what is its z-score?
1. CCCCNC(=O)c1cnn2c(C)c(Cc3ccccc3)c(C)nc12
2. COC(=O)c1ccccc1Oc1c(F)c(F)nc(NCCO)c1F

[A]
1: -0.18; 2: -0.51

* * *

Consider the following molecules; for each one, report its z-score.
experiment: inhibitors of measles virus growth in cells, primary screen, measles RdRp inhibitor project, cell-based, single point, HTS (AID 745); details: infected Vero cells, GFP fluorescence, 64 h; stronger effect = lower value
Hit rate of the full screen: of about 33,000 compounds, about 40 (0.1%) were called active. The entries come from a sample that favours actives as a whole.
Numbers only.

Sample records with z-score:
- O=C1COc2ccc(Cl)cc2N1: 0.06
- O=C(O)c1ccc2c(c1)C(=O)N(c1cccc(Oc3ccc4c(c3)C(=O)N(c3ccccc3)C4=O)c1)C2=O: -2.01
- Cc1cccc(N2CCN(C(=O)c3ccc4nc5ccc(Cl)cc5c(=O)n4c3)CC2C)c1 (stereo unspecified): 0.3
- Cc1cc(C)cc(NC(=O)C(C)N(c2ccccc2)S(C)(=O)=O)c1 (stereo unspecified): 0.11

For each of the items listed, what is its z-score?
1. CCC(NS(=O)(=O)c1ccc(Oc2ccc([N+](=O)[O-])cc2)cc1)C12CC3CC(CC(C3)C1)C2 (stereo unspecified)
2. CC(=O)NC1=NN(C(C)=O)C(c2ccc3c(c2)OCO3)S1 (stereo unspecified)

[A]
-1.36
-0.09

* * *

assay: inhibitors of measles virus growth in cells, primary screen, measles RdRp inhibitor project, cell-based, single point, HTS (AID 745); settings: infected Vero cells, GFP fluorescence, 64 h
Screen size: about 33,000 compounds; about 40 (0.1%) were called active. No stated cut-off is given here; in the data, active means z-score below about -3; inactive means the rest. The list comes from a sample in which actives are over-represented; it also holds close analogues and randomly drawn compounds.
A correct response names exactly one class from active, inactive

Before answering, review these 6 worked examples.
• Cc1ccc(C)c(OCCc2c(C)n[nH]c2C)c1 = inactive
• C=CCOc1ccc(NC(=O)C(=O)NC(C)c2ccccc2)cc1 (stereo not drawn) = inactive
• O=C(CSc1nc2c(cnn2-c2ccc(F)cc2)c(=O)[nH]1)N1CCCCCC1 = inactive
• O=C(Nc1c2c(nn1-c1ccc(F)cc1)CS(=O)(=O)C2)c1ccccc1Cl = inactive
• COc1cccc(NC(=O)Cn2cc(C(=O)C(F)(F)F)c3ccccc32)c1 = inactive
• COCCNC(=O)c1ccc(N2CC3CC(C2)c2cccc(=O)n2C3)c(NC(=O)c2cc3ccccc3oc2=O)c1 (stereo not drawn) = inactive

[Q] Record request — test call for O=C(c1ccc(-n2c(=S)[nH]c3ccccc3c2=O)cc1)N1CCN(C2CCCCC2)CC1
[A] inactive

* * *

test: inhibitors of measles virus growth in cells, primary screen, measles RdRp inhibitor project, cell-based, single point, HTS (AID 745); conditions: infected Vero cells, GFP fluorescence, 64 h; stronger effect = lower value
The campaign covered roughly 33,000 compounds. About 40 (0.1%) were called active. The list comes from a sample in which actives are over-represented; it also holds close analogues and randomly drawn compounds.
Consider the following molecules; for each one, report its z-score.
Numbers only.

Sample records with z-score:
* COc1ccccc1-n1c(C)nc2cc(C(=O)NCc3cccnc3)ccc21 | 1.95
* CCN(CC)C(=O)C1c2cc(OC)c(OC)cc2C(=O)N(C)C1c1ccc(SC)cc1 (stereo not given) | 0.35
* COC(=O)c1c(NC(=O)c2ccc(S(=O)(=O)N3CC(C)CC(C)C3)cc2)sc2c1CC(C)(C)NC2(C)C (stereo not given) | -0.34
* O=C(Nc1ccc(Oc2ccccc2)cc1)c1cn(-c2ccc(Cl)cc2)c(=O)c2ccccc12 | -0.93
* Cc1cccc(NC(N)=Nc2nc(CSc3ccc(Cl)cc3)cc(=O)[nH]2)c1 | 0.03
* CCC(C)NC(=O)C1(C)CCC(=O)N1CCN1CCCCCC1 (stereo not given) | -0.27
* CC(=O)c1cccc(NC(=O)c2ccccc2C(=O)O)c1 | -0.2
* CCC(=O)Nc1cccc(-c2nc3ncccc3o2)c1 | 0.77

For each of the items listed, what is its z-score?
1. COc1ccccc1-c1nc2nc(C)cc(=O)n2[nH]1
2. CCCCCCn1c(SCC(=O)c2ccccc2)nc2c1c(=O)[nH]c(=O)n2C
3. CCOC(=O)C1CCN(c2nc(-c3cccc(C)c3)nc3ccccc23)CC1
4. COc1ccc(Cl)cc1NC(=O)CSc1nc2cc(OC)c(OC)cc2c2nc(C)nn12
5. Cc1ccc(-n2c(SCC(=O)OCc3ccccc3)nc3c(c2=O)SCC3)cc1
6. CC1=C(C(=O)N2CCOCC2)C(c2cccc(Cl)c2)C2=C(CCCC2=O)N1 (stereo not given)
7. Cc1cc(C(=O)NCCCN=C2NS(=O)(=O)c3ccccc32)c2ccccc2n1

[A]
1: -0.19; 2: -0.58; 3: -0.19; 4: -0.11; 5: -1; 6: 0.7; 7: 1.11

* * *

assay: inhibitors of measles virus growth in cells, primary screen, measles RdRp inhibitor project, cell-based, single point, HTS (AID 745); settings: infected Vero cells, GFP fluorescence, 64 h; stronger effect = lower value
In all, about 33,000 compounds went through this assay and about 40 (0.1%) were called active. The sample holds actives, similar compounds and a random draw of the others, so the mix is not that of the screen.
Quantity name: z-score
Answers are plain numbers.

• O=C(COC(=O)c1ccc(N2C(=O)c3ccccc3C2=O)cc1)c1ccc(Cl)cc1 = -1.36
• CCOc1ccc(Nc2cc(C(=O)NCCN3CCCC3)c3ccccc3n2)cc1 = -0.89
• Cc1ccc(C2NC(=O)c3c(sc4c3CCCC4)N2)c(O)c1 (stereo unspecified) = -1.13
• CCN1CCN(c2cc(C)c3cc(NC(=O)CCC4CCCC4)ccc3n2)CC1 = -0.38
• COc1ccc(OC)c(C=Nc2oc(-c3ccccc3)c(-c3ccccc3)c2C#N)c1 = -1

For each of the items listed, what is its z-score?
1. O=C(NCc1ccccc1)c1ccc(CSCc2ccccc2Cl)o1
2. COc1nc(SC)nnc1C
3. COc1ccc2nc(SCc3ccc(Cl)cc3)[nH]c2c1
4. CN(Cc1ccccc1)C(=O)Cn1ncc2c(=O)oc3ccccc3c21

[A]
-0.18
-5.82
0.1
1.21

For each of the items listed, what is its z-score?
1. CCC(=O)N1CCc2cc(Br)cc(S(=O)(=O)N3CCCC(C(=O)N4CCN(c5cccc(C(F)(F)F)c5)CC4)C3)c21 (stereo unspecified)
2. O=C(Nc1ccc(Cl)cn1)c1ccc(-c2ccc(Cl)cc2)o1

[A]
-0.33
-0.31
